Data provenance is patent US6335356B1.

# ASSAY NOTES: Solubility of leflunomide in vehicles (POLYSORBATE 80:alcohol ratios, alcohol, VPD/PBTE)
# Format: physicochemical
# TEST CONTEXT: alcohol, organic solvent or mixture; read-out: soluble in alcohol at
# Experimental: Leflunomide has a low solubility in standard formulations used to dissolve compounds for parenteral administration. For example, the solubility of leflunomide in VPD (126 mg alcohol, 40 mg POLYSORBATE 80®, 3 mg citric acid, 15 mg benzyl alcohol, and 325 mg PEG MW300; also referred to as PBTE) is about 60 mg/ml. Parenterally administered VPD formulations should be diluted at least 1:2 with a pharmaceutically acceptable aqueous solution to avoid toxic effects. […]
OBSERVATION TYPE: Solubility

>>> reported_result("Cc1oncc1C(=O)Nc1ccc(C(F)(F)F)cc1 [Leflunomide]")
"100 mg/mL"
